assay text: Cmax in Sprague-Dawley rat at 3 mg/kg, po administered via gavage after 0.25 to 24 hrs
Format: ADME, organism-based
Design: dose 3 mg/kg, route oral
conditions used: in vivo
Listed here: items and their measured Cmax.
Enter your answer as a number in ng/mL; do not include the unit.

get_value(item= COC(=O)N[C@H](C(=O)N1CCC[C@H]1c1nc2cc([C@H]3CC[C@H](c4cc5nc([C@@H]6CCCN6C(=O)[C@@H](NC(=O)OC)C(C)C)[nH]c5cc4F)N3c3cc(F)c(N4CCCCC4)c(F)c3)c(F)cc2[nH]1)C(C)C , readout=Cmax) returns 190

get_value(item= COC(=O)N[C@H](C(=O)N1CCC[C@H]1c1nc2ccc([C@H]3CC[C@H](c4ccc5nc([C@@H]6CCCN6C(=O)[C@@H](NC(=O)OC)C(C)C)[nH]c5c4)N3c3ccc(C(C)(C)C)cc3)cc2[nH]1)C(C)C , readout=Cmax) returns 60

Now for a further compound.
get_value(item= COC(=O)N[C@H](C(=O)N1CCC[C@H]1c1nc2cc([C@H]3CC[C@H](c4ccc5[nH]c([C@@H]6CCCN6C(=O)[C@@H](NC(=O)OC)C(C)C)nc5c4)N3c3cc(F)c(N4CCCCC4)c(F)c3)ccc2[nH]1)C(C)C , readout=Cmax) returns 50

----------
assay text: AUC in CD1 mouse at 5 mg/kg, po after 0.25 to 24 hrs
Type: ADME, organism-based
Set-up: time 0.25-24 hr, dose 5 mg/kg, route oral
conditions used: in vivo
test readout: AUC (ng·h/mL)
Enter your answer as a number in ng·h/mL; do not include the unit.

get_value(item= COC(=O)N[C@H](C(=O)N1CCC[C@H]1c1nc2ccc([C@H]3CC[C@H](c4ccc5nc([C@@H]6CCCN6C(=O)[C@@H](NC(=O)OC)C(C)C)[nH]c5c4)N3c3ccc(C(C)(C)C)cc3)cc2[nH]1)C(C)C , readout=AUC) returns 1390

----------
Listed here: items and their measured pEC50.
assay text: Inhibition of Hepatitis C virus genotype 6a replicon NS5A transfected in human HuH7 cells assessed as decrease in replication of viral replicon after 4 days by luciferase reporter gene assay
Format: cell-based, Hepatitis C virus subtype 6a
conditions used: Huh-7, 96 h
On this scale, pEC50 is minus log10 of a concentration expressed in M (mol/L).

Consider the worked cases shown below.
get_value(item= COC(=O)N[C@H](C(=O)N1CCC[C@H]1c1nc2cc([C@H]3CC[C@H](c4ccc5[nH]c([C@@H]6CCCN6C(=O)[C@@H](NC(=O)OC)C(C)C)nc5c4)N3c3cc(F)c(N4CCCCC4)c(F)c3)ccc2[nH]1)C(C)C , readout=pEC50) returns 11.15

get_value(item= COC(=O)N[C@H](C(=O)N1CCC[C@H]1c1nc2c(C)c(-c3ccc(-c4ccc5[nH]c([C@@H]6CCCN6C(=O)[C@@H](NC(=O)OC)C(C)C)nc5c4C)cc3)ccc2[nH]1)C(C)C , readout=pEC50) returns 8.15

get_value(item= COC(=O)N[C@H](C(=O)N1CCC[C@H]1c1nc2cc(-c3ccc(-c4cc5nc([C@@H]6CCCN6C(=O)[C@@H](NC(=O)OC)C(C)C)[nH]c5cc4C)cc3)c(C)cc2[nH]1)C(C)C , readout=pEC50) returns 8.49

get_value(item= COC(=O)N[C@H](C(=O)N1CCC[C@H]1c1nc2cc(-c3ccc(-c4cc5nc([C@@H]6CCCN6C(=O)[C@@H](NC(=O)OC)C(C)C)[nH]c5cc4C(F)(F)F)cc3)c(C(F)(F)F)cc2[nH]1)C(C)C , readout=pEC50) returns 7.67

get_value(item= COC(=O)N[C@H](C(=O)N1CCC[C@H]1c1nc2c(Cl)c([C@H]3CC[C@H](c4ccc5[nH]c([C@@H]6CCCN6C(=O)[C@@H](NC(=O)OC)C(C)C)nc5c4Cl)N3c3ccc(C(C)(C)C)cc3)ccc2[nH]1)C(C)C , readout=pEC50) returns 9.23

get_value(item= COC(=O)N[C@H](C(=O)N1CCC[C@H]1c1nc2cc(-c3ccc(-c4cc5nc([C@@H]6CCCN6C(=O)[C@@H](NC(=O)OC)C(C)C)[nH]c5cc4F)cc3)c(F)cc2[nH]1)C(C)C , readout=pEC50) returns 9.56

Now for a further molecule.
get_value(item= COC(=O)N[C@H](C(=O)N1CCC[C@H]1c1nc2c(C)c([C@H]3CC[C@H](c4ccc5[nH]c([C@@H]6CCCN6C(=O)[C@@H](NC(=O)OC)C(C)C)nc5c4C)N3c3ccc(C(C)(C)C)cc3)ccc2[nH]1)C(C)C , readout=pEC50) returns 9.88

----------
assay text: Half life in CD1 mouse at 3 mg/kg, iv after 0.1 to 24 hrs
Format: ADME, organism-based
conditions used: in vivo
test readout: half-life (h)
Enter your answer as a number in h; do not include the unit.

get_value(item= COC(=O)N[C@H](C(=O)N1CCC[C@H]1C(=O)Nc1ccc([C@H]2CC[C@@H](c3ccc(NC(=O)[C@@H]4CCCN4C(=O)[C@@H](NC(=O)OC)C(C)C)cc3)N2c2ccc(C(C)(C)C)cc2)cc1)C(C)C , readout=half-life) returns 11

----------
assay text: Half life in CD1 mouse at 5 mg/kg, po after 0.25 to 24 hrs
Assay type: ADME, organism-based
conditions used: in vivo
test readout: half-life (h)
Enter your answer as a number in h; do not include the unit.

get_value(item= COC(=O)N[C@H](C(=O)N1CCC[C@H]1c1nc2ccc([C@H]3CC[C@H](c4ccc5nc([C@@H]6CCCN6C(=O)[C@@H](NC(=O)OC)C(C)C)[nH]c5c4)N3c3ccc(C(C)(C)C)cc3)cc2[nH]1)C(C)C , readout=half-life) returns 2.6

----------
assay text: AUC in beagle dog at 2.5 mg/kg, po administered via gavage after 0.25 to 24 hrs
Type: ADME, organism-based, Canis lupus familiaris
Set-up: dose 2.5 mg/kg, time 0.25-24 hr, route oral
conditions used: in vivo
Listed here: items and their measured AUC.
Enter your answer as a number in ng·h/mL; do not include the unit.

get_value(item= COC(=O)N[C@H](C(=O)N1CCC[C@H]1c1nc2cc([C@H]3CC[C@H](c4ccc5[nH]c([C@@H]6CCCN6C(=O)[C@@H](NC(=O)OC)C(C)C)nc5c4)N3c3cc(F)c(N4CCCCC4)c(F)c3)ccc2[nH]1)C(C)C , readout=AUC) returns 1230

***
get_value(item= COC(=O)N[C@H](C(=O)N1CCC[C@H]1c1nc2cc([C@H]3CC[C@H](c4cc5nc([C@@H]6CCCN6C(=O)[C@@H](NC(=O)OC)C(C)C)[nH]c5cc4F)N3c3cc(F)c(N4CCCCC4)c(F)c3)c(F)cc2[nH]1)C(C)C , readout=AUC) returns 17200

----------
assay text: Inhibition of Hepatitis C virus genotype 1a H77 replicon NS5A transfected in human HuH7 cells assessed as decrease in replication of viral replicon after 4 days by luciferase reporter gene assay
Format: cell-based, Hepatitis C virus (isolate H77)
conditions used: Huh-7, 96 h
# strict inequality: EC50 < 1 nM yields Yes, everything else yields No

Is EC50 strictly under 1 nM for the entry COCc1c(-c2ccc(-c3ccc4[nH]c([C@@H]5CCCN5C(=O)[C@@H](NC(=O)OC)C(C)C)nc4c3COC)cc2)ccc2[nH]c([C@@H]3CCCN3C(=O)[C@@H](NC(=O)OC)C(C)C)nc12 ?
No

***
Is EC50 strictly under 1 nM for the entry COC(=O)N[C@H](C(=O)N1CCC[C@H]1c1nc2cc(-c3ccc(-c4cc5nc([C@@H]6CCCN6C(=O)[C@@H](NC(=O)OC)C(C)C)[nH]c5cc4F)cc3)c(F)cc2[nH]1)C(C)C ?
Yes

Is EC50 strictly under 1 nM for the entry COC(=O)N[C@H](C(=O)N1CCC[C@H]1c1nc2nc(-c3ccc(-c4ccc5[nH]c([C@@H]6CCCN6C(=O)[C@@H](NC(=O)OC)C(C)C)nc5n4)cc3)ccc2[nH]1)C(C)C ?
No

Is EC50 strictly under 1 nM for the entry COC(=O)N[C@H](C(=O)N1CCC[C@H]1c1nc2cc(-c3ccc(-c4cc(C(F)(F)F)c5[nH]c([C@@H]6CCCN6C(=O)[C@@H](NC(=O)OC)C(C)C)nc5c4)cc3)cc(C(F)(F)F)c2[nH]1)C(C)C ?
No

Is EC50 strictly under 1 nM for the entry COC(=O)N[C@H](C(=O)N1CCC[C@H]1c1nc2c(F)c([C@H]3CC[C@H](c4ccc5[nH]c([C@@H]6CCCN6C(=O)[C@@H](NC(=O)OC)C(C)C)nc5c4F)N3c3ccc(C(C)(C)C)cc3)ccc2[nH]1)C(C)C ?
Yes

----------
assay text: Oral bioavailability in CD1 mouse at 3 mg/kg after 0.25 to 24 hrs
Assay type: ADME, organism-based
conditions used: in vivo
test readout: bioavailability
Number first, unit second.

get_value(item= COC(=O)N[C@H](C(=O)N1CCC[C@H]1C(=O)Nc1ccc([C@H]2CC[C@@H](c3ccc(NC(=O)[C@@H]4CCCN4C(=O)[C@@H](NC(=O)OC)C(C)C)cc3)N2c2ccc(C(C)(C)C)cc2)cc1)C(C)C , readout=bioavailability) returns 42%
